Assay: Pharmacokinetic evaluation following intravenous and oral administration in rats
Type: in vivo
Details: male, Sprague-Dawley, rat, plasma, intravenous, 1 mg/kg; read-out: T1/2 elimination half life (converted)

smiles	half-life / min
CC(C)(C)/[N+]([O-])=C/c1ccc(S(=O)(=O)N2CCCCC2)cc1	782
CC(C)(C)NC(=O)c1ccc(/C=[N+](\[O-])C(C)(C)C)cc1	19.8
CCNS(=O)(=O)c1ccc(/C=[N+](\[O-])C(C)(C)C)cc1	31.2
CCN(CC)S(=O)(=O)c1ccccc1/C=[N+](\[O-])C(C)(C)C	30.6
CC(C)(C)/[N+]([O-])=C/c1ccc(C(=O)O)cc1	22.2
CC(C)(C)/[N+]([O-])=C/c1ccc(S(=O)(=O)Nc2ccc(F)cc2)cc1	25.8
CCS(=O)(=O)c1ccc(/C=[N+](\[O-])C(C)(C)C)cc1	266
